system: primary human adult cardiomyocytes; experiment: WST-1 cell survival/proliferation assay on human cardiomyocytes; format: cell-based; conditions: Human Cardiac Myocyte, 48 h; read-out: Drug-induced cytotoxicity IC50, Hu-CM
readout_type: IC50 (µM)

compound="COc1cc(Nc2ncc(F)c(Nc3ccc4c(n3)NC(=O)C(C)(C)O4)n2)cc(OC)c1OC [Compound R406]" measured_result=2.6

----------
assay: Early bioavailability determination (plasma PK); format: in vivo, Sprague Dawley rats; details: male, Sprague Dawley, plasma; PO, 10 mg/kg, rat, mean
readout_type: half-life (h)

compound="Cc1ccnc(Nc2cccc(-c3cnc(N4CCNC(=O)C45CC5)o3)c2)n1 [Compound 001]" measured_result=2.1

----------
Experiment: WST-1 cell survival/proliferation assay on rat cardiomyocytes
Format: cell-based
Settings: neonatal ventricular rat cardiac myocytes (Clonetics, P1-3); Rat Cardiac Myocyte, 48 h; read-out: Drug-induced cytotoxicity IC50, Rat-CM
Description: WST-1 cell survival/proliferation assay (Roche Diagnostic ref No 1644807) was performed on both primary human adult cardiomyocytes and rat neonatal cardiac myocytes. Human cardiomyocytes were isolated from normal human ventricle tissue of the adult heart and were able to proliferate for a number of passage. […] The amount of formazan dye formed was quantified by its absorbance at 450 nm using a scanning multiwell spectrophotometer (MultiSkan MS, Thermo-LabSystems, France). […]
readout_type: IC50 at 48 h

smiles_string=Cc1ccnc(Nc2cccc(-c3cnc(N4CCNC(=O)C45CC5)o3)c2)n1 measured_result="10 µM"

----------
experiment: Early bioavailability determination (plasma PK); format: in vivo, Sprague Dawley rats; settings: male, Sprague Dawley, plasma; IV, 2 mg/kg, rat, mean
readout_type: Cmax

smiles_string=Cc1ccnc(Nc2cccc(-c3cnc(N4CCNC(=O)C45CC5)o3)c2)n1 readout_type=Cmax measured_result="869 ng/mL"

----------
target: c-Met (Homo sapiens (Human), UniProt P08581)
Sequence (P08581 25-1390): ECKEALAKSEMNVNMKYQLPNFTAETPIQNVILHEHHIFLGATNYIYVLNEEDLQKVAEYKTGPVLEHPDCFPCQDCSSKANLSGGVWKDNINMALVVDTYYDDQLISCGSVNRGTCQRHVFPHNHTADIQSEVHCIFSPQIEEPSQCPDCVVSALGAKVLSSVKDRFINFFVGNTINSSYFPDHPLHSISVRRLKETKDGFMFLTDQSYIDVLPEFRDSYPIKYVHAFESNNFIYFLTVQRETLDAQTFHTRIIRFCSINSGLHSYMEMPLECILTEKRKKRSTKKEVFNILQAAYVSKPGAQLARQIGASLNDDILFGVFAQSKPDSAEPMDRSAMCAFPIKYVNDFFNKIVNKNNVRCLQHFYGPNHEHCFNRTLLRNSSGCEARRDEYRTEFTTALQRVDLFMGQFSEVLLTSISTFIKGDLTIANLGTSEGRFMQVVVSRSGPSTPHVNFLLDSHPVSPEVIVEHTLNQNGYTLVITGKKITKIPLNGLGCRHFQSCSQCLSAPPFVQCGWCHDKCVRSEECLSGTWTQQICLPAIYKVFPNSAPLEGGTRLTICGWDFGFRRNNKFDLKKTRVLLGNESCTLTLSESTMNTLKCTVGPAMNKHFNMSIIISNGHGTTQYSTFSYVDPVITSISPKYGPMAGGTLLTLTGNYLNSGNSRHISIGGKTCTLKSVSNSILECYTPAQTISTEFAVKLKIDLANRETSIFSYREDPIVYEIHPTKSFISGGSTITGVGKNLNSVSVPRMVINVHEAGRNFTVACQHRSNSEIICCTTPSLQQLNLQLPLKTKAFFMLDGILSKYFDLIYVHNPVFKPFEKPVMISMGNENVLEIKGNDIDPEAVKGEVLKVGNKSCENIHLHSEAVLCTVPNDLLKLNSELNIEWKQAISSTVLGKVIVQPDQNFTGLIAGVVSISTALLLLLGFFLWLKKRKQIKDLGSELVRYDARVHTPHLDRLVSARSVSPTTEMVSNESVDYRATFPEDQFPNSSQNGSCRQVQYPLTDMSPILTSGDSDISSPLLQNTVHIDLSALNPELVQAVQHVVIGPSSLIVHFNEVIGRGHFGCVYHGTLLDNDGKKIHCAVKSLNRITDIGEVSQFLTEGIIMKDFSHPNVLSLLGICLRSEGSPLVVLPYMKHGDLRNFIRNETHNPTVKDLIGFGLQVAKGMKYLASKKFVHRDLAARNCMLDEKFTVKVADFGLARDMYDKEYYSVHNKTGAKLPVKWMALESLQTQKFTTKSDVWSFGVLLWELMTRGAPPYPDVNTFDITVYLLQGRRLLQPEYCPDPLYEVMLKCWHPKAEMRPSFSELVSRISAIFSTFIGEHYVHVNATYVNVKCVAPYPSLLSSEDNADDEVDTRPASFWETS
readout_type: IC50 (µM)

compound="Cc1ccnc(Nc2cccc(-c3cnc(N4CCNC(=O)C45CC5)o3)c2)n1 [Compound 001]" measured_target="c-Met (Homo sapiens (Human), UniProt P08581)" measured_result=10

----------
experiment: Early bioavailability determination (plasma PK); assay type: in vivo, Sprague Dawley rats; details: male, Sprague Dawley, plasma; IV, 2 mg/kg, rat, mean
readout_type: clearance (mL/min/kg)

smiles_string=Cc1ccnc(Nc2cccc(-c3cnc(N4CCNC(=O)C45CC5)o3)c2)n1 measured_result=15

----------
experiment: WST-1 cell survival/proliferation assay on human cardiomyocytes; type: cell-based; settings: Human Cardiac Myocyte, 48 h; read-out: Drug-induced cytotoxicity IC50, Hu-CM
readout_type: IC50 at 48 h (µM)

smiles_string=Cc1ccnc(Nc2cccc(-c3cnc(N4CCNC(=O)C45CC5)o3)c2)n1 readout_type="IC50 at 48 h" measured_result=10

----------
molecular target: Btk (Homo sapiens (Human), UniProt Q06187)
Sequence (Q06187 whole entry, species assumed): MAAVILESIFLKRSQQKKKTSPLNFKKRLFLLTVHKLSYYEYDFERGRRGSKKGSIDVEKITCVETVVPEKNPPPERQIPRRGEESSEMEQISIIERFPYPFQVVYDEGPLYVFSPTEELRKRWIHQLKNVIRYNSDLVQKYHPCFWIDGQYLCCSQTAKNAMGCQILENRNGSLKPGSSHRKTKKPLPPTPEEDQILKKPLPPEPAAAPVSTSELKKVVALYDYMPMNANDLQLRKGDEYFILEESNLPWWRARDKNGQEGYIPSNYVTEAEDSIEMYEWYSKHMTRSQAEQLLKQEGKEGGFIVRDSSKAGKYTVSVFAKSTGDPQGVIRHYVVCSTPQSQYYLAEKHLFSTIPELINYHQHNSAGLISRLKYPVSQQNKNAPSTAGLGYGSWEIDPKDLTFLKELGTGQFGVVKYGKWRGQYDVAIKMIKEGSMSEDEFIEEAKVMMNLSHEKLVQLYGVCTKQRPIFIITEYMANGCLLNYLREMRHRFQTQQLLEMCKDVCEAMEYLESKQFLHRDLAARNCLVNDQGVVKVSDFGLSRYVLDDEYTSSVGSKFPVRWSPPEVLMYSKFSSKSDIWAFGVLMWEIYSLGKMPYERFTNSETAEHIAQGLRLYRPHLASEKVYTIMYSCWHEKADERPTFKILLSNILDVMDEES
readout_type: IC50 (µM)

smiles_string=Cc1ccnc(Nc2cccc(-c3cnc(N4CCNC(=O)C45CC5)o3)c2)n1 readout_type=IC50 unit_descriptor=µM measured_result=20

----------
molecular target: BCR-ABL (Homo sapiens, UniProt P00519); test: Cell-based proliferation assay on BaF3 model, BCR-ABL
Sequence (P00519 whole entry, looked up, stated change not applied): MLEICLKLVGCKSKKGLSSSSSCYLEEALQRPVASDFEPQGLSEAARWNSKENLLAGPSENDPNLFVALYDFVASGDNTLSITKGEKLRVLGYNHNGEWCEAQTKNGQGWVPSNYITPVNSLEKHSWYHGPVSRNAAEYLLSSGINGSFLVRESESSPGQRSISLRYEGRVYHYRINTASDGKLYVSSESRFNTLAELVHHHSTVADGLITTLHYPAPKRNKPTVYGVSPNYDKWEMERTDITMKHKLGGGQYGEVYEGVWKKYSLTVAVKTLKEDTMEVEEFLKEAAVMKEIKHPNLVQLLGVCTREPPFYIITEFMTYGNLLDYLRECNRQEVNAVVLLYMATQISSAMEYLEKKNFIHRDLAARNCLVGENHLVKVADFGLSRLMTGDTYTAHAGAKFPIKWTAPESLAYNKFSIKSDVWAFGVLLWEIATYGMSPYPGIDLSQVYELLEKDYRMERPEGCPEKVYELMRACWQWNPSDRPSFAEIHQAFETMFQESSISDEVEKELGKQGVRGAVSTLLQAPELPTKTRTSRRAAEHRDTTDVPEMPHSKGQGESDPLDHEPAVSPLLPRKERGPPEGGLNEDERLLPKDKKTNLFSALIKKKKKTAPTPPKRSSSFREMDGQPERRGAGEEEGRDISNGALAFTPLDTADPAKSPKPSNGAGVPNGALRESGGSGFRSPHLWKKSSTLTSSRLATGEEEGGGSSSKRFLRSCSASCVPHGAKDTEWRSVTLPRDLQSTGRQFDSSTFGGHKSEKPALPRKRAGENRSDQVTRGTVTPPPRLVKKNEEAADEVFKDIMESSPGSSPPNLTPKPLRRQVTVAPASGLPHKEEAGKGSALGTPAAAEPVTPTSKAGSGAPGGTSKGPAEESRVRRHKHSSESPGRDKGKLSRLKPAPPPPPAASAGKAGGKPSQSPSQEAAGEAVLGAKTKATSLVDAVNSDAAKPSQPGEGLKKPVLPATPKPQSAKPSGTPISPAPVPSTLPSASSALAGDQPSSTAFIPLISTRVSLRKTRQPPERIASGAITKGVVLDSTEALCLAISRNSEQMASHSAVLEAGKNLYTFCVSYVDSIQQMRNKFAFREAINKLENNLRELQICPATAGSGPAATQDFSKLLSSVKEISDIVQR
readout_type: IC50

molecule="Cc1ccnc(Nc2cccc(-c3cnc(N4CCNC(=O)C45CC5)o3)c2)n1 [Compound 001]" measured_target="BCR-ABL (Homo sapiens, UniProt P00519)" measured_result="10 µM"
